TARGET_OR_TEST_SYSTEM: T1, mouse MAdCAM expressed on cells (mouse, UniProt Q61826 22-405)
T1 construct: whole, on cells
T1 sequence (looked up): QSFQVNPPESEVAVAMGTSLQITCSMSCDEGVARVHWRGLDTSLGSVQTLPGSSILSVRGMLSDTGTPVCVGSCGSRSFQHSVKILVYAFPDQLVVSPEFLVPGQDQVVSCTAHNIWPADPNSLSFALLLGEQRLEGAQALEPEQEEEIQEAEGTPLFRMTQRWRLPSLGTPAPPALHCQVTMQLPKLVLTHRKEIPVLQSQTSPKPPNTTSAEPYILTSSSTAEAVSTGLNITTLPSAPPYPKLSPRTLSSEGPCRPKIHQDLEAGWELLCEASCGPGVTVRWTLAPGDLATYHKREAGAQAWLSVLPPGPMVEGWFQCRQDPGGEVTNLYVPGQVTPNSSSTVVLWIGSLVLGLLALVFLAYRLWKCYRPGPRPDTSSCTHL
ASSAY_TEXT: cell binding
TEST_READOUT: binding result

BINDER	EXPERIMENTAL_RESULT
MAdCAM antibody Clone ID 52 of Table 6 (scFv) (scFv) scFv: EVQLLESGGGLVQPGGSLRLSCAASGFTFSNSDMNWVRQAPGKGLEWVAHIWNDGSQKYYADSVKGRFTISRDNSKNTLYLQMNSLRAEDTAVYYCARDRTDPGYSSAMDVWGQGTTVTVSSGGGGSGGGGSGGGGSGGGGSDIQMTQSPSSLSASVGDRVTITCRASQDIRNYLGWYQQKPGKAPKLLIYDASSLETGVPSRFSGSGSGTDFTLTISSLQPEDFATYYCQQATSLPLTFGGGTKVEIK	no binding
MAdCAM antibody Clone ID 19 of Table 6 (scFv) (scFv) scFv: EVQLLESGGGLVQPGGSLRLSCAASGFTFDDYAMHWVRQAPGKGLEWVSGISWNSGSIGYADSVKGRFTISRDNSKNTLYLQMNSLRAEDTAVYYCAKDIVAAGHYYYGMDVWGQGTTVTVSSGGGGSGGGGSGGGGSGGGGSDIQMTQSPSSLSASVGDRVTITCQASQDISNYLNWYQQKPGKAPKLLIYDASNLETGVPSRFSGSGSGTDFTLTISSLQPEDFATYYCQQSYSTPLTFGGGTKVEIK	no binding
